Listing of entries alongside the reported inhibition.
Target: 1-phosphatidylinositol 4,5-bisphosphate phosphodiesterase gamma-1 (Homo sapiens) (UniProt P19174)
Sequence (P19174 whole entry, looked up): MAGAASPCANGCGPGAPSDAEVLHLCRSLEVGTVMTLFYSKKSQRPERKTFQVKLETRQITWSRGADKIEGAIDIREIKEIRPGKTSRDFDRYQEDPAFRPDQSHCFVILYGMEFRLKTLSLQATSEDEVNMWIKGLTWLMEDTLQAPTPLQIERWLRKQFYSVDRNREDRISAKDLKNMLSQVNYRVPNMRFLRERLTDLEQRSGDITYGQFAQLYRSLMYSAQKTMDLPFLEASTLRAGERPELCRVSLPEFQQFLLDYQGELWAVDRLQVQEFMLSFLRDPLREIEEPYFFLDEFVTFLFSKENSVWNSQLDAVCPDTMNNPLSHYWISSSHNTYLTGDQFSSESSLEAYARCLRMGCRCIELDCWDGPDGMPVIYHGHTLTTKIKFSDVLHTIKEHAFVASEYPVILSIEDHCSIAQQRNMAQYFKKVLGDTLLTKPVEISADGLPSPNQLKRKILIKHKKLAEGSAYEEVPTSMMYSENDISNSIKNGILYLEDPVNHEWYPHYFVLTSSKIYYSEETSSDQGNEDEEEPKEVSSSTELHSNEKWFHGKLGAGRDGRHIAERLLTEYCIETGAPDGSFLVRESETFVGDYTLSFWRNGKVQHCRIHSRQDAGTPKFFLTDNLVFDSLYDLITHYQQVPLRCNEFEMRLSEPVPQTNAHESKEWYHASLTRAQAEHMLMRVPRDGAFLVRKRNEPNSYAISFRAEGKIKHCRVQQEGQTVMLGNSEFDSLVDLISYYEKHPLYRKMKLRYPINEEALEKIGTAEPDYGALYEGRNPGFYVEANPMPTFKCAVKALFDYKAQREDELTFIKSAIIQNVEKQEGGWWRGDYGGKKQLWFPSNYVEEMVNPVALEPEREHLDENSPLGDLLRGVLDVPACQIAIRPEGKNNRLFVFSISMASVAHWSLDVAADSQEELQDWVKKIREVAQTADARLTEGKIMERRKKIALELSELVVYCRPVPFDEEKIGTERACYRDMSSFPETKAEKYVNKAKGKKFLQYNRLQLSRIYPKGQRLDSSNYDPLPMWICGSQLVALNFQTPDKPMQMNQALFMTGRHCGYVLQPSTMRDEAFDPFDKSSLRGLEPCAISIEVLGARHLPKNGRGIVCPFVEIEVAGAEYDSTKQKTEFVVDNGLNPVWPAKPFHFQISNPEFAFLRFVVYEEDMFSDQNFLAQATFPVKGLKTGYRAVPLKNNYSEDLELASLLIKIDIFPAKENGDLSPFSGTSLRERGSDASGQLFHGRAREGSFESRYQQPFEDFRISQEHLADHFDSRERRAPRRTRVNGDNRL
Test: PLC-gamma1 enzyme inhibitors, primary screen, biochemical, fluorescence, purified enzyme (AID 720700)
Conditions: purified PLC-gamma1, fluorogenic substrate, at 12.2 µM, active compounds read high
Screen size: about 370,000 compounds; about 3,100 (0.84%) were called active. Shown is part of a subset that was picked to be rich in actives.

molecule: O=C1CCC(C(=O)OCC(=O)Nc2ccc(OC(F)F)cc2)=NN1
inhibition (%): 3.57
--
molecule: COC(=O)[C@]12C[C@H](CC(=O)NCc3ccccc3)C(=O)N(Cc3ccccc3)C1=C[C@H](COCc1ccccc1)O[C@@H]2C
inhibition (%): 8.06
--
molecule: Cc1ccc(CN2CCCCC(NC(=O)C3CCCCC3)C2=O)cc1 (centres undefined)
inhibition (%): 7.08
--
molecule: C[C@@H](NC(=O)c1ccccc1OCC(=O)Nc1ccc(I)cc1)C(=O)N(C)Cc1ccccc1
inhibition (%): -0.29
--
molecule: O=C(CSc1nnc(-c2ccncc2)n1C1CCCCC1)Nc1ccccc1
inhibition (%): 10.2
--
molecule: COC(=O)[C@]12C[C@H](CC(=O)N3CCN(C(=O)C4CC4)CC3)C(=O)N(CCC3=CCCCC3)C1=C[C@H](C(C)C)O[C@@H]2C1CC1
inhibition (%): -0.79
--
molecule: CCOc1ccc(N(CC(=O)Nc2c(C)n(C)n(-c3ccccc3)c2=O)S(=O)(=O)c2ccc(Cl)s2)cc1
inhibition (%): 1.1
--
molecule: COc1ccc(NC(=O)COC(=O)CNC(=O)C2CCCCC2)cc1
inhibition (%): 0.1
--
molecule: O=C(Cn1nnc2ccccc2c1=O)NCc1ccc(Cl)cc1
inhibition (%): 6.08

---

Molecular target: 1-phosphatidylinositol 4,5-bisphosphate phosphodiesterase gamma-1 (Homo sapiens) (UniProt P19174)
Assay: PLC-gamma1 enzyme inhibitors, primary screen, biochemical, fluorescence, purified enzyme (AID 720700)
Conditions: purified PLC-gamma1, fluorogenic substrate, at 12.2 µM
In all, about 370,000 compounds went through this assay and about 3,100 (0.84%) were called active. No stated cut-off is given here; in the data, active means inhibition above about 9.5%; inactive means the rest. For the sample, actives were picked, then their nearest neighbours and some compounds at random.
Outcome codes: active, inactive

compound: C=CCN1[C@H](CC(C)C)COc2cccc(N3CCCC3)c2S1(=O)=O
answer.label: inactive

compound: O=C(NCc1cccs1)C1CCN(S(=O)(=O)c2ccccc2[N+](=O)[O-])CC1
answer.label: inactive

compound: CC(C)Oc1ccc(CC(=O)NNC(=S)Nc2ccc(Br)cc2)cc1
answer.label: active

compound: CSc1ccccc1NC(=O)Cc1ccc(Br)cc1
answer.label: inactive

compound: Cc1ccc(C=O)c([B-](F)(F)F)c1
answer.label: active

compound: O=C(Nc1ccc(Br)cc1)OCCN1C(=O)CCC12CCC(c1ccccc1)CC2 (stereo unspecified)
answer.label: inactive

compound: CC12c3ccccc3C(c3ccccc31)C1C(=O)N(Cc3cccnc3)C(=O)C12 (stereo unspecified)
answer.label: inactive

compound: O=C(CCCCCN1C(=O)C2C3C=CC(C3)C2C1=O)Nc1ccccc1 (stereo unspecified)
answer.label: inactive

compound: CCOc1ccccc1NC(=O)COc1ccc(S(=O)(=O)N2CCCC2)cc1
answer.label: inactive

compound: COC(=O)Cc1ccc(NC(=S)NCc2ccco2)cc1
answer.label: inactive

compound: COc1ccc(S(=O)(=O)N2CCC(C(=O)NCCC(=O)Nc3ccccc3OC)CC2)cc1
answer.label: inactive
